Target: β2AR (Homo sapiens)
Construct: hexahistidine (C); made in house; host or cells: Sf9 insect cells
Sequence (P07550 whole entry): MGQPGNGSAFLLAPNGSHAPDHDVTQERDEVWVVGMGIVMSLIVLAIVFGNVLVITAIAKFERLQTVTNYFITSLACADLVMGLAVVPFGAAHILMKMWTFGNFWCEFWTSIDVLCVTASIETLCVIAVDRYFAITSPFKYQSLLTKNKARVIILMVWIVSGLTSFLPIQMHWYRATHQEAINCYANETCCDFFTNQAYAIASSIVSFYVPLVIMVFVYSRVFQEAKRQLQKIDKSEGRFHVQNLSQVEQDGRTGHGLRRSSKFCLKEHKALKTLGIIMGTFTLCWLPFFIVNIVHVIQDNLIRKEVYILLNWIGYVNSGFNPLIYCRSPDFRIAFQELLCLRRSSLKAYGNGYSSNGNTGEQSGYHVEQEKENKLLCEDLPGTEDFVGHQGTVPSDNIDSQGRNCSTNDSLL
Test: Saturation and competition binding assays on purified β2AR reconstituted in phospholipid vesicles, with and without prebound Fab 5
Details: β2AR-Fab5 (prebound Fab 5); saturation binding; read-out: [3H]dihydroalprenolol Kd ± S.E.
OUTCOME MEASURE: Kd (nM)

compound="CCCc1ccccc1OCC(O)CNC(C)C (stereo not shown) [[^3H]dihydroalprenolol]" outcome_measure=Kd units_symbol=nM result_number=1.08

###

Molecular target: β2AR (Homo sapiens)
Construct: hexahistidine (C); made in house; host or cells: Sf9 insect cells
Test: Saturation and competition binding assays on purified β2AR reconstituted in phospholipid vesicles, with and without prebound Fab 5
Settings: β2AR without prebound Fab 5; saturation binding; read-out: [3H]dihydroalprenolol Kd ± S.E.
pKd: −log10 of the molar value.
OUTCOME MEASURE: pKd

compound="CCCc1ccccc1OCC(O)CNC(C)C (stereo not shown) [[^3H]dihydroalprenolol]" outcome_measure=pKd result_number=8.99

The reported numbers originate from patent US7947807B2.
